Below: a set of entries, each annotated with reported IC50.
- study.system: human NaV 1.7 (Homo sapiens, UniProt Q15858)
- Sequence (Q15858 whole entry): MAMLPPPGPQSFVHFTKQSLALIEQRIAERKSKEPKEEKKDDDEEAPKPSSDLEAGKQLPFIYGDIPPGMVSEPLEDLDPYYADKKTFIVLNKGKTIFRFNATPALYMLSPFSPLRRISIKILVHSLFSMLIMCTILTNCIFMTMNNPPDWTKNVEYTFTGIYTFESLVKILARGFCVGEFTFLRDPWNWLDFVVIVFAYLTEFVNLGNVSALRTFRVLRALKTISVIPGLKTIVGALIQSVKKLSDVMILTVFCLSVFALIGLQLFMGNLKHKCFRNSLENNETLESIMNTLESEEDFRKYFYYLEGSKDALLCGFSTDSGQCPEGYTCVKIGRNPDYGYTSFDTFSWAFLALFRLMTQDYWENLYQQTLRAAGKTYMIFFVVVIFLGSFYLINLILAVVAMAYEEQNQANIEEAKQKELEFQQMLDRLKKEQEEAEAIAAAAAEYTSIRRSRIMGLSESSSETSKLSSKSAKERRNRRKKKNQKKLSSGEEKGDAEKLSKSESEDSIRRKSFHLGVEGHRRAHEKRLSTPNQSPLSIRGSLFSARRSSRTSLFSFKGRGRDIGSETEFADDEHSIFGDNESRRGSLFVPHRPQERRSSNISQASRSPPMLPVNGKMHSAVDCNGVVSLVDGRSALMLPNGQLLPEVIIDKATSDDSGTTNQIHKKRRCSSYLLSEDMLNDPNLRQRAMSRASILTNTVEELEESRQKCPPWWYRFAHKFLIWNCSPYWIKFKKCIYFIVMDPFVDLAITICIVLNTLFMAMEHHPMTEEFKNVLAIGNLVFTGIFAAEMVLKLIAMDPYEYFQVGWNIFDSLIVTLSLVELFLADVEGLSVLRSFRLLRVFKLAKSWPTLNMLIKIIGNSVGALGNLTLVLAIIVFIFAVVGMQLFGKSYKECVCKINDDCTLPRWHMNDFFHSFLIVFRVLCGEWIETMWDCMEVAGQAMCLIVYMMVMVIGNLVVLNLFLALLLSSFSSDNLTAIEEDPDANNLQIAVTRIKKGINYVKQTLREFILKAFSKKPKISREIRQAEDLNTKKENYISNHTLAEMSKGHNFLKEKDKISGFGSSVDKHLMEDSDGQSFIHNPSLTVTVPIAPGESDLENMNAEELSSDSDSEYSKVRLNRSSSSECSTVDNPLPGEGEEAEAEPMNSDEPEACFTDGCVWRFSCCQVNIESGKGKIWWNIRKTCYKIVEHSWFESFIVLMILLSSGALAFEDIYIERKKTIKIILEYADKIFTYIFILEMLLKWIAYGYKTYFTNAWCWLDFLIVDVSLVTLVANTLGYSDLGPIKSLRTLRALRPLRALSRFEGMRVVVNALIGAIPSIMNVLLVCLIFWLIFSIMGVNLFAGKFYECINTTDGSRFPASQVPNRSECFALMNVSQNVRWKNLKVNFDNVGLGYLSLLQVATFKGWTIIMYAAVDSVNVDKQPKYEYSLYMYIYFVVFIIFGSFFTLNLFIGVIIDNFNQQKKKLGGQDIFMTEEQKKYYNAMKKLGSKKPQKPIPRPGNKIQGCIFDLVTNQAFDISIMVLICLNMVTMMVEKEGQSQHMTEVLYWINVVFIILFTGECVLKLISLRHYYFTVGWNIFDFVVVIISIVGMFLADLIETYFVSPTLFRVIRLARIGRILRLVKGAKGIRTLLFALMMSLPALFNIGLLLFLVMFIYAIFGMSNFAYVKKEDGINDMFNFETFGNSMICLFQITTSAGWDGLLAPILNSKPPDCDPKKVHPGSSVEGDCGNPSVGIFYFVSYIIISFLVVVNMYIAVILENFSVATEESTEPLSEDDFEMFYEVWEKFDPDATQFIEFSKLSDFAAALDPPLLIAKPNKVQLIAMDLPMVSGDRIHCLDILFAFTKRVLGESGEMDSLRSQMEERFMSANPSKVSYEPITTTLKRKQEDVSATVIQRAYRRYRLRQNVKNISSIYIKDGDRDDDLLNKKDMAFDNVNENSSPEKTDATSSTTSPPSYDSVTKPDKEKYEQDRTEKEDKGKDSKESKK
- method.notes: E-VIPR optical membrane potential assay with electrical stimulation
- assay.conditions: sodium channel inhibition; read-out: Binned Activity Data (IC50)

compound	IC50
Cn1ncc2c1-c1ccccc1OC21CCN(C(=O)c2cccc(F)c2OC(F)F)CC1 [Compound 194]	≤ 2 µM
COCCOc1ccc(C(=O)N2CCC3(CC2)Oc2ccccc2-c2c3cnn2C)cc1OC [Compound 420]	≤ 2 µM
COc1cc(C(=O)N2CCC3(CC2)Oc2ccccc2-c2nn(C)cc23)ccc1OC(C)(C)C [Compound 307]	≤ 2 µM
COc1c(CO)cccc1C(=O)N1CCC2(CC1)Oc1ccccc1-c1c2cnn1C [Compound 853]	≤ 2 µM
CCOc1cccc(C(=O)N2CCC3(CC2)Oc2cc(Cl)ccc2-n2cccc23)c1 [Compound 478]	≤ 2 µM
COc1cc(C(=O)N2CCC3(CC2)Oc2cc(F)ccc2-n2cccc23)ccc1OC[C@@H]1COC(C)(C)O1 [Compound 693]	≤ 2 µM
COc1cc(C(=O)N2CCC3(CC2)Oc2ccccc2-c2c3cnn2C)ccc1OCCC(C)C [Compound 362]	≤ 2 µM
CC(C)Oc1ccc(C(=O)N2CCC3(CC2)Oc2ccccc2-c2c3cnn2C)c(C#N)c1 [Compound 40]	2 to 5 µM

###

Below: a set of entries, each annotated with reported pIC50.
- study.system: human NaV 1.7 (Homo sapiens, UniProt Q15858)
- method.notes: E-VIPR optical membrane potential assay with electrical stimulation
- assay.conditions: sodium channel inhibition; read-out: Binned Activity Data (IC50)
pIC50: −log10 of the molar value.

compound	study.system	pIC50
Cn1ncc2c1-c1ccccc1OC21CCN(C(=O)c2ccc(OCCOC(F)(F)F)c(C#N)c2)CC1 [Compound 26]	human NaV 1.7 (Homo sapiens, UniProt Q15858)	≥ 5.70
N#Cc1ccc2n1-c1ccccc1OC21CCN(C(=O)c2ccc(S(=O)(=O)NCCCO)cc2)CC1 [Compound 540]	human NaV 1.7 (Homo sapiens, UniProt Q15858)	5.30 to 5.70
N#Cc1ccc2n1-c1ccccc1OC21CCN(C(=O)c2ccc(S(=O)(=O)NCCO)cc2)CC1 [Compound 17]	human NaV 1.7 (Homo sapiens, UniProt Q15858)	5.30 to 5.70
Cn1ncc2c1-c1ccccc1OC21CCN(C(=O)c2cccc3c2CC(C)(C)O3)CC1 [Compound 860]	human NaV 1.7 (Homo sapiens, UniProt Q15858)	≥ 5.70

###

- study.system: human NaV 1.7 (Homo sapiens, UniProt Q15858)
- method.notes: E-VIPR optical membrane potential assay with electrical stimulation
- assay.conditions: sodium channel inhibition; read-out: Binned Activity Data (IC50)
- From the text: Assays for Detecting and Measuring NaV Inhibition Properties of Compound E-VIPR Optical Membrane Potential Assay Method with Electrical Stimulation Sodium channels are voltage-dependent proteins that can be activated by inducing membrane voltage changes by applying electric fields. The electrical stimulation instrument and methods of use are described in Ion Channel Assay Methods PCT/US01/21652, herein incorporated by reference and are referred to as E-VIPR. […] 7) Read Plate on E-VIPR. […]
Below: a set of entries, each annotated with reported IC50.

compound	IC50
CCn1ncc2c1-c1ccccc1OC21CCN(C(=O)c2ccc(C(C)(C)C)c(OC)c2)CC1 [Compound 372]	≤ 2 µM
COc1cccc(OC)c1C(=O)N1CCC2(CC1)Oc1cc(Cl)ccc1-n1cccc12 [Compound 703]	≤ 2 µM
Cn1cc2c(n1)-c1ccccc1OC21CCN(C(=O)c2ccc(C(C)(C)O)cc2)CC1 [Compound 230]	≤ 2 µM
